System: Giardia intestinalis
experimental protocol: Antimicrobial activity against Giardia intestinalis IMSS:0696:1 incubated for 48 hrs followed by compound washout measured after 48 hrs
Type: functional, organism-based
stated conditions: Giardia duodenalis, IMSS:0696:1, 48 h; read-out: pIC50 (converted)
Give IC50 for every item shown.
Give bare numbers, in µM.

These solved cases illustrate the format of a correct answer.
CCOC(=O)C(=O)Nc1ncc([N+](=O)[O-])s1: 6.46
COC(=O)Nc1ncc([N+](=O)[O-])s1: 0.01
Nc1ncc([N+](=O)[O-])s1: 27.5
O=C(Nc1ncc([N+](=O)[O-])s1)NC1CCCCC1: 0.363
CCCCOc1ccc(NC(=O)Nc2ncc([N+](=O)[O-])s2)cc1: 1.82
CCCCC(=O)Nc1ncc([N+](=O)[O-])s1: 0.398
CCCCCCCCCCCCCCCC(=O)Nc1ncc([N+](=O)[O-])s1: 1.66
O=C(Nc1ccc([N+](=O)[O-])cc1)Nc1ncc([N+](=O)[O-])s1: 15.5
O=C(Nc1ccc(Cl)cc1)Nc1ncc([N+](=O)[O-])s1: 0.589
O=C(Nc1ccc(F)cc1)Nc1ncc([N+](=O)[O-])s1: 7.94

For every listed record, write down its IC50.
1. CCOc1ccc(NC(=O)Nc2ncc([N+](=O)[O-])s2)cc1
2. CC(=O)Nc1ncc([N+](=O)[O-])s1 [NITHIAMIDE]
3. O=C(Nc1ccccc1)Nc1ncc([N+](=O)[O-])s1
4. CC(=O)Oc1ccccc1C(=O)Nc1ncc([N+](=O)[O-])s1 [NITAZOXANIDE]
5. COc1ccc(NC(=O)Nc2ncc([N+](=O)[O-])s2)cc1

Output:
1: 3.8; 2: 0.501; 3: 2.57; 4: 1.23; 5: 29.5

====

Consider the following molecules; for each one, report its IC50.
Tested on: Leishmania amazonensis
experimental protocol: Antimicrobial activity against promastigote stage of Leishmania amazonensis IFLA/BR/67/PH-8 clinical isolate after 72 hrs by Neubauer chamber analysis
Assay type: functional, organism-based
stated conditions: IFLA/BR/67/PH-8, 72 h

# count of solved cases: 6
COC(=O)Nc1ncc([N+](=O)[O-])s1: > 50 µM
O=C(Nc1ccc([N+](=O)[O-])cc1)Nc1ncc([N+](=O)[O-])s1: > 50 µM
CCCCCCCCCCCCCCCC(=O)Nc1ncc([N+](=O)[O-])s1: > 50 µM
CCCCC(=O)Nc1ncc([N+](=O)[O-])s1: > 50 µM
CCOc1ccc(NC(=O)Nc2ncc([N+](=O)[O-])s2)cc1: > 50 µM
N=C(N)c1ccc(OCCCCCOc2ccc(C(=N)N)cc2)cc1: 14.3 µM

# return IC50 for each item in the list
1. O=C(Nc1ncc([N+](=O)[O-])s1)NC1CCCCC1
2. COc1ccc(NC(=O)Nc2ncc([N+](=O)[O-])s2)cc1

Output:
1: > 50 µM; 2: 32.2 µM

// for each molecule below, give its IC50
1. O=C(Nc1ccc(Cl)cc1)Nc1ncc([N+](=O)[O-])s1
2. CC(=O)Oc1ccccc1C(=O)Nc1ncc([N+](=O)[O-])s1 [NITAZOXANIDE]
3. O=C(Nc1ccccc1)Nc1ncc([N+](=O)[O-])s1
4. O=C(Cn1ccnc1[N+](=O)[O-])NCc1ccccc1
5. Nc1ncc([N+](=O)[O-])s1

Output:
["37.2 µM", "7.23 µM", "38.5 µM", "> 50 µM", "> 50 µM"]
